# runDescription: inhibitors of Clostridioides difficile proliferation – 4-point retest, confirmation (AID 1224921);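 further: plate controls were DMSO wells for no effect and levofloxacin 16 µg/mL wells for full effect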
# runConditions: Clostridioides difficile clinical isolate growth, OD600, 24 h, active compounds read low; at 30 µM unless noted
The campaign covered roughly 1,400 compounds. About 350 (25%) were called active. Roughly 2% stayed inconclusive and do not appear here. These entries were drawn from the full list. Measured potencies and affinities stand elsewhere.
valueKind: max activity

Worked examples, 5 molecules total:
{"columns": ["entrySmiles", "max activity"],
 "data": [
  ["CC(C)CC#Cc1ccc2c(c1)O[C@@H](CN(C)Cc1ccncc1)[C@H](C)CN([C@H](C)CO)S2(=O)=O", "18.2% [at 8 µM] (inactive)"],
  ["O=C(C[C@@H]1C[C@@H]2c3cc(NC(=O)Nc4ccc(C(F)(F)F)cc4)ccc3O[C@@H]2[C@H](CO)O1)NC1CCCCC1", "-10.2% [at 0.5 µM] (inactive)"],
  ["C[C@@H]1CN([C@H](C)CO)C(=O)c2cc(NC(=O)Cc3ccccc3)ccc2O[C@@H]1CN(C)C(=O)Nc1ccccc1", "-4.25% (inactive)"],
  ["C[C@H]1CN([C@@H](C)CO)C(=O)c2cc(NC(=O)Cc3ccccc3)ccc2O[C@H]1CN(C)C(=O)Nc1ccccc1", "-15.5% (inactive)"],
  ["C[C@H](CO)N1C[C@H](C)[C@H](CN(C)C(=O)Nc2ccc(C(F)(F)F)cc2)Oc2ncc(C3=CCCC3)cc2C1=O", "32.4% (inactive)"]
]}

Okay, here is my list. What is max activity for each of these?
1. CO[C@@H]1CN(C)C(=O)c2ccc(NC(=O)c3nc4ccccc4s3)cc2OC[C@H](C)N(Cc2cccnc2)C[C@@H]1C
2. C[C@H](CO)N1C[C@H](C)[C@H](CN(C)C(=O)Nc2ccccc2)Oc2ccc(NC(=O)Cc3ccccc3)cc2C1=O

Output:
["-17.1% [at 1.95 µM] (inactive)", "-7.38% (inactive)"]
